Measured koff, listed per entry for reference.
- target-of-assay: Macaca fascicularis IL-36R extracellular domain expressed with a C-terminal myc-myc-hexahistidine tag (Macaca fascicularis)
- protocol-description: SPR Biacore T200, mAb captured by anti-hFc, 25C, PBS-T pH 6.0
readout-type: koff

>>> data_value("H4H14728P (antibody, human IgG4 S228P, kappa, V domains shown) VH: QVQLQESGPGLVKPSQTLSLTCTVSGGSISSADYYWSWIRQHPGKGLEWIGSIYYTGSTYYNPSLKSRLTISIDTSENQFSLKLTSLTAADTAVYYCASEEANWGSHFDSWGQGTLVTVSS VL: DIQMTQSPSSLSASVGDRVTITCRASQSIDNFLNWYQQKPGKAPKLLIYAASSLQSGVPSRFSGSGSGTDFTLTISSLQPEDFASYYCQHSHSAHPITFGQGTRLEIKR")
"0.000616 s⁻¹"
>>> data_value("H4H14731P (antibody, human IgG4 S228P, kappa, V domains shown) VH: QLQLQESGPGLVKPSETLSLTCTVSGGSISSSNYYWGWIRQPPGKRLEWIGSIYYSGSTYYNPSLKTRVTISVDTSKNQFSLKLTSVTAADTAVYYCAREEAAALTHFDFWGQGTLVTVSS VL: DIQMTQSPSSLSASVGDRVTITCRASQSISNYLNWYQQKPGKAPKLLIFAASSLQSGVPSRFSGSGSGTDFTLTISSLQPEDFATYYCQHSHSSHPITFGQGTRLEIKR")
"0.00152 s⁻¹"
>>> data_value("H4H14708P2 (antibody, human IgG4 S228P, kappa, V domains shown) VH: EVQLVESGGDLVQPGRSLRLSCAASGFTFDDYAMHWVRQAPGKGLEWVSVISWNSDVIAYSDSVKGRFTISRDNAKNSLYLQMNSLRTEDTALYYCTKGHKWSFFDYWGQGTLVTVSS VL: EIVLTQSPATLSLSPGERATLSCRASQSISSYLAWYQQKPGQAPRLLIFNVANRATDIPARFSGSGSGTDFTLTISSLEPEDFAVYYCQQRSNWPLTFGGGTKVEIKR")
"0.0015 s⁻¹"
>>> data_value("H4H14700P2 (antibody, human IgG4 S228P, kappa, V domains shown) VH: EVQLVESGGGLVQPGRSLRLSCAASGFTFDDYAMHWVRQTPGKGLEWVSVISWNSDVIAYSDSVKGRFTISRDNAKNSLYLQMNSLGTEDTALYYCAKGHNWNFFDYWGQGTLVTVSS VL: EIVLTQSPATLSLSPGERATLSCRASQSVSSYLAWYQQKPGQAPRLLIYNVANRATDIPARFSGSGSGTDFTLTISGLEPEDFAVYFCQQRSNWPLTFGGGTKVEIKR")
"0.00171 s⁻¹"
